Measured viability, T/C values are reported for all entries that follow.
# Test system: 282377-053-R-J1-PDC complex spheroid viability
# assayText: Anticancer human tumor 282377-053-R-J1-PDC patient-derived colon adenocarcinoma cell line growth inhibition [RAS]
# testConditions: second compound 0.0316 µM; first compound 0.1 µM; stronger effect = lower value
# Description: RAS pathway inhibitors in Combinations in Complex Spheroids A high-throughput screen of multi-cell type tumor spheroids was designed to identify active combinations of RAS pathway inhibitors and targeted small molecules. Complex spheroids include a stromal component modeled by human endothelial cells (HUVEC) and fibroblasts modeled by human mesenchymal stem cells (MSCs). […] Compounds. […] If the clinical Cmax for an agent had not been determined, the highest concentration tested was 10 microM. […]
# value in %; strip the unit string

Here are 5 compounds together with their reported answers.
Cc1nc(N2CCC3(CC2)COC(C)C3N)c(CO)nc1Sc1ccnc(N)c1Cl (stereo not given) + C=CC(=O)N1CCN(c2nc(OCC3CCCN3C)nc3c(F)c(-c4nc(N)cc(C)c4C(F)(F)F)c(Cl)cc23)C(C)C1 : 98.3
C=CC(=O)Nc1cc(Nc2nccc(-c3cn(C)c4ccccc34)n2)c(OC)cc1N(C)CCN(C)C + C=CC(=O)N1CCN(c2nc(OCC3CCCN3C)nc3c(F)c(-c4nc(N)cc(C)c4C(F)(F)F)c(Cl)cc23)C(C)C1 : 124
Cc1nc(N2CCC3(CC2)COC(C)C3N)c(CO)nc1Sc1ccnc(N)c1Cl (stereo not given) + C#Cc1c(F)ccc2cc(O)cc(-c3ncc4c(N5CC6CCC(C5)N6)nc(OCC56CCCN5CC(F)C6)nc4c3F)c12 : 120
CCC(CC)c1cc(NC2CCC(N)C2)n2nccc2n1 (stereo not given) + C=CC(=O)N1CCN(c2nc(OCC3CCCN3C)nc3c(F)c(-c4nc(N)cc(C)c4C(F)(F)F)c(Cl)cc23)C(C)C1 : 97
C[C@@H](NC(=O)c1ncnc(N)c1Cl)c1ncc(C(=O)Nc2cc(C(F)(F)F)c(Cl)cn2)s1 + C=CC(=O)N1CCN(c2nc(OCC3CCCN3C)nc3c(F)c(-c4nc(N)cc(C)c4C(F)(F)F)c(Cl)cc23)C(C)C1 : 78.4

Inquiry: What value of measured viability, T/C is listed for CC(C)NCC(C(=O)N1CCN(c2ncnc3c2C(C)CC3O)CC1)c1ccc(Cl)cc1 (stereo not given) + C=CC(=O)N1CCN(c2nc(OCC3CCCN3C)nc3c(F)c(-c4nc(N)cc(C)c4C(F)(F)F)c(Cl)cc23)C(C)C1 ?
Reply text: 99.3

Inquiry: What value of measured viability, T/C is listed for CC(=O)OC12COC1CC(O)C1(C)C(=O)C(O)C3=C(C)C(OC(=O)C(O)C(NC(=O)OC(C)(C)C)c4ccccc4)CC(O)(C(OC(=O)c4ccccc4)C21)C3(C)C (stereo not given) + C=CC(=O)N1CCN(c2nc(OCC3CCCN3C)nc3c(F)c(-c4nc(N)cc(C)c4C(F)(F)F)c(Cl)cc23)C(C)C1 ?
Reply text: 20.5

Inquiry: What value of measured viability, T/C is listed for O=C(c1ccc(F)c(F)c1Nc1ccc(I)cc1F)N1CC(O)([C@@H]2CCCCN2)C1 + C=CC(=O)N1CCN(c2nc(OCC3CCCN3C)nc3c(F)c(-c4nc(N)cc(C)c4C(F)(F)F)c(Cl)cc23)C(C)C1 ?
Reply text: 56.1

Inquiry: What value of measured viability, T/C is listed for CCC(CC)c1cc(NC2CCC(N)C2)n2nccc2n1 (stereo not given) + C#Cc1c(F)ccc2cc(O)cc(-c3ncc4c(N5CC6CCC(C5)N6)nc(OCC56CCCN5CC(F)C6)nc4c3F)c12 ?
Reply text: 120

Inquiry: What value of measured viability, T/C is listed for CC(C)n1nc(-c2ccc3oc(N)nc3c2)c2c(N)ncnc21 + C#Cc1c(F)ccc2cc(O)cc(-c3ncc4c(N5CC6CCC(C5)N6)nc(OCC56CCCN5CC(F)C6)nc4c3F)c12 ?
Reply text: 56.9

====

# Test system: 282377-053-R-J1-PDC complex spheroid viability
# assayText: Anticancer human tumor 282377-053-R-J1-PDC cell line growth inhibition [RAS];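 note: spheroids exposed to agents for seven days before readout; luminescence viability as percent of DMSO vehicle control wells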
# testConditions: second compound 0.00949 µM; first compound 10 µM; stronger effect = lower value
Measured viability, T/C values are reported for all entries that follow.

CC(Nc1ccc2c(c1)OCCn1cc(N3C(=O)OCC3C(F)F)nc1-2)C(N)=O (configuration not stated) + CCn1c(-c2cc(N3CCN(C)CC3)cnc2C(C)OC)c2c3cc(ccc31)-c1csc(n1)CC(NC(=O)C1CC1C)C(=O)N1CCCC(N1)C(=O)OCC(C)(C)C2 : 68.3%

--- query ---
Inquiry: What value of measured viability, T/C is listed for Cc1nc(N2CCC3(CC2)COC(C)C3N)c(CO)nc1Sc1ccnc(N)c1Cl (configuration not stated) + CCn1c(-c2cc(N3CCN(C)CC3)cnc2C(C)OC)c2c3cc(ccc31)-c1csc(n1)CC(NC(=O)C1CC1C)C(=O)N1CCCC(N1)C(=O)OCC(C)(C)C2 ?
Reply text: 94%

====

# Test system: 282377-053-R-J1-PDC complex spheroid viability
# assayText: Anticancer human tumor 282377-053-R-J1-PDC cell line growth inhibition [RAS]; active = viability on the fitted dose curve at most 10% of control; inactive = the rest;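 note: spheroids exposed to agents for seven days before readout; luminescence viability as percent of DMSO vehicle control wells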
# testConditions: second compound 0.00949 µM; first compound 10 µM
Returns: one label drawn from T = active, F = inactive

Here are 3 compounds together with their reported answers.
CCC(CC)c1cc(NC2CCC(N)C2)n2nccc2n1 (centres undefined) + CCn1c(-c2cc(N3CCN(C)CC3)cnc2C(C)OC)c2c3cc(ccc31)-c1csc(n1)CC(NC(=O)C1CC1C)C(=O)N1CCCC(N1)C(=O)OCC(C)(C)C2 : T
NC1c2ccccc2OC12CCN(c1cnc3c(N4CCCc5ncccc54)n[nH]c3n1)CC2 (centres undefined) + CCn1c(-c2cccnc2C(C)OC)c2c3cc(ccc31)N1CCOC(CC(NC(=O)C(C(C)C)N(C)C(=O)C3(F)CCN(C(=O)C#CC(C)(C)N(C)C)CC3)C(=O)N3CCCC(N3)C(=O)OCC(C)(C)C2)C1 : F
CCC(CC)c1cc(NC2CCC(N)C2)n2nccc2n1 (centres undefined) + CCn1c(-c2cccnc2C(C)OC)c2c3cc(ccc31)N1CCOC(CC(NC(=O)C(C(C)C)N(C)C(=O)C3(F)CCN(C(=O)C#CC(C)(C)N(C)C)CC3)C(=O)N3CCCC(N3)C(=O)OCC(C)(C)C2)C1 : T

Would you kindly look at the next entry?
Inquiry: Hey, what did the test say about CC1(O)CCCC1n1c(=O)c(C(F)F)cc2cnc(NC3CCN(S(C)(=O)=O)CC3)nc21 (centres undefined) + CCn1c(-c2cc(N3CCN(C)CC3)cnc2C(C)OC)c2c3cc(ccc31)-c1csc(n1)CC(NC(=O)C1CC1C)C(=O)N1CCCC(N1)C(=O)OCC(C)(C)C2 ?
Reply text: T

====

Measured viability, T/C values are reported for all entries that follow.
# System: 282377-053-R-J1-PDC complex spheroid viability
# assayText: Anticancer human tumor 282377-053-R-J1-PDC cell line growth inhibition [RAS];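 note: spheroids exposed to agents for seven days before readout; luminescence viability as percent of DMSO vehicle control wells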
# testConditions: second compound 0.00949 µM; first compound 0.00949 µM; stronger effect = lower value
# value in %; strip the unit string

Here are 2 molecules together with their reported answers.
CC1(C)CCC(Nc2ncc(C(F)(F)F)c(-c3c[nH]c4c(P(C)(C)=O)c(C#N)ccc34)n2)CN1 (centres undefined) + CCn1c(-c2cc(N3CCN(C)CC3)cnc2C(C)OC)c2c3cc(ccc31)-c1csc(n1)CC(NC(=O)C1CC1C)C(=O)N1CCCC(N1)C(=O)OCC(C)(C)C2 : 126
CC1(C)CCC(Nc2ncc(C(F)(F)F)c(-c3c[nH]c4c(P(C)(C)=O)c(C#N)ccc34)n2)CN1 (centres undefined) + CCn1c(-c2cccnc2C(C)OC)c2c3cc(ccc31)N1CCOC(CC(NC(=O)C(C(C)C)N(C)C(=O)C3(F)CCN(C(=O)C#CC(C)(C)N(C)C)CC3)C(=O)N3CCCC(N3)C(=O)OCC(C)(C)C2)C1 : 134

Inquiry: Enter reported viability, T/C observed with 282377-053-R-J1-PDC complex spheroid viability for CCc1c2c(nc3ccc(O)cc13)-c1cc3c(c(=O)n1C2)COC(=O)[C@]3(O)CC + CCn1c(-c2cc(N3CCN(C)CC3)cnc2C(C)OC)c2c3cc(ccc31)-c1csc(n1)CC(NC(=O)C1CC1C)C(=O)N1CCCC(N1)C(=O)OCC(C)(C)C2
Reply text: 136

Inquiry: Enter reported viability, T/C observed with 282377-053-R-J1-PDC complex spheroid viability for CCc1c2c(nc3ccc(O)cc13)-c1cc3c(c(=O)n1C2)COC(=O)[C@]3(O)CC + CCn1c(-c2cccnc2C(C)OC)c2c3cc(ccc31)N1CCOC(CC(NC(=O)C(C(C)C)N(C)C(=O)C3(F)CCN(C(=O)C#CC(C)(C)N(C)C)CC3)C(=O)N3CCCC(N3)C(=O)OCC(C)(C)C2)C1
Reply text: 142
